- target: SARS-CoV-2 3CL^pro (Severe acute respiratory syndrome coronavirus 2 (2019-nCoV) (SARS-CoV-2))
- test details: biochemical
- run parameters: FRET, class symbols; read-out: IC50 (nM), inhibitory activity against 3CL^pro
For each entry below, report its IC50 value.

Using the record for COc1ccc(Cn2c(=O)n(Cc3nnn[nH]3)c(=O)[nH]/c2=N\c2cc3cn(C)nc3cc2Cl)cc1 [Compound 10] , report its IC50. 200 to 500 nM

Using the record for Cn1cc2cc(/N=c3\[nH]c(=O)n(Cc4nnn[nH]4)c(=O)n3Cc3ccc(Cl)cc3)c(Cl)cc2n1 [Compound 5] , report its IC50. 200 to 500 nM

Using the record for Cn1cc2cc(/N=c3\[nH]c(=O)n(Cc4nnn[nH]4)c(=O)n3Cc3ccc(C(C)(C)C)cc3)c(Cl)cc2n1 [Compound 4] , report its IC50. 500 to 1000 nM

Using the record for Cn1cc2cc(/N=c3\[nH]c(=O)n(Cc4nnnn4C)c(=O)n3Cc3cc(F)c(F)cc3F)c(Cl)cc2n1 [Compound 16] , report its IC50. < 200 nM
